# Test system: SK-OV-3 ovarian
# assayRemarks: NCI-60 one-dose screen, 48 h
# conditionParameters: 10 µM unless noted
Compounds without any hit were thinned out: in the full panel of roughly 83,000, 20% have a hit. The source made the active and inactive calls. Rule for the calls: active = growth percent below 10; inactive = the rest.
Labels: active, inactive

compound	testTarget	qualitativeLabel
COc1ccc(NC(=O)c2sc3nc(C)c(C(=O)/C=C/c4ccccc4)cc3c2N)cc1	SK-OV-3 ovarian	inactive
Nc1ncnc2c1N=C(c1ccc(Br)cc1)CC(c1cccc(Nc3ccnc4cc(C(F)(F)F)ccc34)c1)N2 (centres undefined)	SK-OV-3 ovarian	inactive
CCOC(=O)c1c(NC(=O)c2ccc(Cl)cc2)sc2c(CN(C)C)c(O)ccc12	SK-OV-3 ovarian	inactive
COC1=CC(c2ccc[nH]2)=N/C1=C\c1[nH]c(C)c(CC(=O)OCc2ccccc2)c1CCC(=O)OCc1ccccc1	SK-OV-3 ovarian	active
CC(C)c1ccc(C(=O)Nc2sc3c(c2C(N)=O)CCC(=O)C3)cc1	SK-OV-3 ovarian	inactive
Cc1sc2nc(NCCc3c[nH]c4ccc(Cl)cc34)[nH]c(=O)c2c1C	SK-OV-3 ovarian	inactive
CCOC(=O)c1cc(C)n(-c2ccc(C(=O)O)cc2)c1C	SK-OV-3 ovarian	inactive
Cc1cc(N2CCN(CC(=O)Nc3ccc4c(ccn4C)c3)CC2)nc(N2CCCCCC2)n1	SK-OV-3 ovarian	inactive
C#CCOC(=O)/C=C/c1cn(-c2ccccc2)nc1-c1ccc(OC)cc1	SK-OV-3 ovarian	inactive
